Test system: SW620 human colon cancer cells
Test: SW620 Cell Viability Assay
Assay type: cell-based
Settings: SW-620, 96 h, CellTiter-Glo Luminescent Cell Viability Assay, 4 days incubation, read-out: Cellular EC50 (μM) SW620
Structures can show the parent of a compound that is named as a salt.

{"compound": "c1cc(NCc2ccsc2)nc(-c2n[nH]c3nc(NCCN4CCOCC4)ncc23)c1", "valuePrefix": ">", "EC50 (µM)": 10}
{"compound": "N[C@H]1CC[C@H](Nc2ncc3c(-c4cccc(NCc5ccsc5)c4)n[nH]c3n2)CC1", "valuePrefix": "=", "EC50 (µM)": 6.41}
{"compound": "N[C@H]1CC[C@H](Nc2ncc3c(-c4cccc(NCc5ccccc5Cl)c4)n[nH]c3n2)CC1", "valuePrefix": "=", "EC50 (µM)": 4.1}
{"compound": "NCCC(Nc1cccc(-c2n[nH]c3nc(N[C@H]4CC[C@H](N)CC4)ncc23)n1)c1ccccc1 (stereo partly shown) [Example 69, hydrochloride]", "valuePrefix": "=", "EC50 (µM)": 0.001}

---

Test system: SW620 human colon cancer cells
Experiment: SW620 Cell Viability Assay
Assay type: cell-based
Conditions: SW-620, 96 h, CellTiter-Glo Luminescent Cell Viability Assay, 4 days incubation, read-out: Cellular EC50 (μM) SW620
Description: SW620 Cell Viability Assay 1. […]
Where a name gives a salt, the structure may show the parent alone.
For each record, check the reported EC50: if it is below 0.6 µM write condition met, else write condition not met.

{"compound": "NCC(Nc1nccc(-c2n[nH]c3nc(NCCN4CCOCC4)ncc23)n1)c1ccsc1 (stereo not drawn) [Example 82, hydrochloride]", "categoryLabel": "condition met"}
{"compound": "NCC(Nc1nccc(-c2n[nH]c3nc(NCCN4CCOCC4)ncc23)n1)c1ccccc1 (stereo not drawn) [Example 83, hydrochloride]", "categoryLabel": "condition met"}
{"compound": "c1cc(NCc2cccs2)cc(-c2n[nH]c3nc(NCCN4CCOCC4)ncc23)c1 [Example 54]", "categoryLabel": "condition not met"}
{"compound": "NCC(Nc1nccc(-c2n[nH]c3nc(NCCN4CCOCC4)ncc23)n1)c1cccc(Cl)c1 (stereo not drawn) [Example 76, hydrochloride]", "categoryLabel": "condition met"}
{"compound": "Clc1ccccc1CNc1cccc(-c2n[nH]c3nc(NCCN4CCOCC4)ncc23)c1 [Example 57]", "categoryLabel": "condition not met"}
{"compound": "Clc1cccc(CNc2cccc(-c3n[nH]c4nc(NCCN5CCOCC5)ncc34)n2)c1 [Example 47]", "categoryLabel": "condition not met"}
{"compound": "N[C@H]1CC[C@H](Nc2ncc3c(-c4ccnc(NCc5ccccc5)n4)n[nH]c3n2)CC1 [Example 70, hydrochloride]", "categoryLabel": "condition not met"}
{"compound": "N[C@H]1CC[C@H](Nc2ncc3c(-c4ccnc(NCc5cccc(Cl)c5)n4)n[nH]c3n2)CC1 [Example 71, hydrochloride]", "categoryLabel": "condition met"}
{"compound": "NCC(Nc1nccc(-c2n[nH]c3nc(N[C@H]4CC[C@H](N)CC4)ncc23)n1)c1cccc(Cl)c1 (stereo partly drawn) [Example 78, hydrochloride]", "categoryLabel": "condition not met"}
{"compound": "N[C@H]1CC[C@H](Nc2ncc3c(-c4cccc(NCc5ccc(Cl)cc5)c4)n[nH]c3n2)CC1 [Example 55]", "categoryLabel": "condition not met"}
{"compound": "Clc1ccccc1CNc1cccc(-c2n[nH]c3nc(NCCN4CCOCC4)ncc23)n1 [Example 59]", "categoryLabel": "condition not met"}
{"compound": "c1cc(-c2n[nH]c3nc(NCCN4CCOCC4)ncc23)nc(NCc2ccsc2)n1 [Example 77, hydrochloride]", "categoryLabel": "condition not met"}
{"compound": "Clc1ccc(CNc2nccc(-c3n[nH]c4nc(NCCN5CCOCC5)ncc34)n2)cc1 [Example 64, hydrochloride]", "categoryLabel": "condition not met"}
{"compound": "Clc1cccc(CNc2nccc(-c3n[nH]c4nc(NCCN5CCOCC5)ncc34)n2)c1 [Example 62, hydrochloride]", "categoryLabel": "condition not met"}
{"compound": "Clc1ccccc1CNc1nccc(-c2n[nH]c3nc(NCCN4CCOCC4)ncc23)n1 [Example 63, hydrochloride]", "categoryLabel": "condition not met"}

---

Target: Human DYRK1B (Homo sapiens)
Construct: purchased Invitrogen PR8350B (former PV4649)
Sequence (Q9Y463 whole entry): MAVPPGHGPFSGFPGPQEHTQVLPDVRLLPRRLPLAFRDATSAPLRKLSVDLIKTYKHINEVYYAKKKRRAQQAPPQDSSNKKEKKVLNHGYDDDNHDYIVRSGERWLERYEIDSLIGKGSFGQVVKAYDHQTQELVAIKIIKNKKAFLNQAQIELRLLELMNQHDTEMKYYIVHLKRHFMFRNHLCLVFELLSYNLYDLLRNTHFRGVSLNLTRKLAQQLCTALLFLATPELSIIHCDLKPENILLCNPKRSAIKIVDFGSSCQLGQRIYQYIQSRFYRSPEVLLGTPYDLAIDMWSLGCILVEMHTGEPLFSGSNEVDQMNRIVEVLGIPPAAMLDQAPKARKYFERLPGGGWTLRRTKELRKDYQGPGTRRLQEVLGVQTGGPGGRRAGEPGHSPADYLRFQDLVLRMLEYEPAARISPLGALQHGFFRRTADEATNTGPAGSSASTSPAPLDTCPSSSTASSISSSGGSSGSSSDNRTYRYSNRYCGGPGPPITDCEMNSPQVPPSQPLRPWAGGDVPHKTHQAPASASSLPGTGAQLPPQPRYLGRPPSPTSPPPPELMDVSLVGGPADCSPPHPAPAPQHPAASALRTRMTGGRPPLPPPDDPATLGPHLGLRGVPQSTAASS
Test: DYRK1B Kinase TR-FRET (IMAP-Tb) Assay
Type: biochemical
Details: TR-FRET (IMAP-Tb); ATP 70 μM; 37° C. for 60 minutes; averages of multiple runs; read-out: Enzyme IC50 (μM) DYRK1B
Counter-ions that a name gives are not always drawn.
List of log10 of IC50 values.
observedProperty: log10 of IC50 (log10 of the value in µM)

{"compound": "Clc1cccc(CNc2nccc(-c3n[nH]c4nc(NC5CCNCC5)ncc34)n2)c1 [Example 86, hydrochloride]", "systemUnderTest": "Human DYRK1B (Homo sapiens)", "log10 of IC50": -1.11}
{"compound": "c1cc(NCc2ccsc2)nc(-c2n[nH]c3nc(NCCN4CCOCC4)ncc23)c1", "systemUnderTest": "Human DYRK1B (Homo sapiens)", "log10 of IC50": -0.63}
{"compound": "N[C@H]1CC[C@H](Nc2ncc3c(-c4cccc(NCc5cccs5)c4)n[nH]c3n2)CC1", "systemUnderTest": "Human DYRK1B (Homo sapiens)", "log10 of IC50": -0.74}
{"compound": "N[C@H]1CC[C@H](Nc2ncc3c(-c4ccnc(NCc5ccc(Cl)cc5)n4)n[nH]c3n2)CC1 [Example 72, hydrochloride]", "systemUnderTest": "Human DYRK1B (Homo sapiens)", "log10 of IC50": -2.05}
{"compound": "CN(C)CCNc1ncc2c(-c3ccnc(NCc4cccc(Cl)c4)n3)n[nH]c2n1 [Example 87, hydrochloride]", "systemUnderTest": "Human DYRK1B (Homo sapiens)", "log10 of IC50": -0.16}
{"compound": "Clc1cccc(CNc2nccc(-c3n[nH]c4nc(NCCN5CCOCC5)ncc34)n2)c1 [Example 62, hydrochloride]", "systemUnderTest": "Human DYRK1B (Homo sapiens)", "log10 of IC50": -1.23}
{"compound": "c1ccc(CNc2cccc(-c3n[nH]c4nc(NCCN5CCOCC5)ncc34)n2)cc1", "systemUnderTest": "Human DYRK1B (Homo sapiens)", "log10 of IC50": 0.66}
{"compound": "Clc1cccc(CNc2nccc(-c3n[nH]c4nc(NCCN5CCCC5)ncc34)n2)c1 [Example 90, hydrochloride]", "systemUnderTest": "Human DYRK1B (Homo sapiens)", "log10 of IC50": 0.12}
{"compound": "NCC(Nc1nccc(-c2n[nH]c3nc(NCCN4CCOCC4)ncc23)n1)c1cccc(Cl)c1 (centres unmarked) [Example 76, hydrochloride]", "systemUnderTest": "Human DYRK1B (Homo sapiens)", "log10 of IC50": -1.92}
{"compound": "N[C@H]1CC[C@H](Nc2ncc3c(-c4ccnc(NCc5cccc(C(F)(F)F)c5)n4)n[nH]c3n2)CC1 [Example 84, hydrochloride]", "systemUnderTest": "Human DYRK1B (Homo sapiens)", "log10 of IC50": -2.15}
{"compound": "N[C@H]1CC[C@@H](Nc2ncc3c(-c4ccnc(NCc5cccc(Cl)c5)n4)n[nH]c3n2)CC1 [Example 89, hydrochloride]", "systemUnderTest": "Human DYRK1B (Homo sapiens)", "log10 of IC50": -0.73}
{"compound": "NCCC(Nc1cccc(-c2n[nH]c3nc(N[C@H]4CC[C@H](N)CC4)ncc23)n1)c1ccccc1 (some centres unmarked) [Example 69, hydrochloride]", "systemUnderTest": "Human DYRK1B (Homo sapiens)", "log10 of IC50": -0.71}
{"compound": "N[C@H]1CC[C@H](Nc2ncc3c(-c4ccnc(NCc5ccsc5)n4)n[nH]c3n2)CC1 [Example 66, hydrochloride]", "systemUnderTest": "Human DYRK1B (Homo sapiens)", "log10 of IC50": -1.76}
{"compound": "NCCC(Nc1nccc(-c2n[nH]c3nc(NCCN4CCOCC4)ncc23)n1)c1ccccc1 (centres unmarked) [Example 81, hydrochloride]", "systemUnderTest": "Human DYRK1B (Homo sapiens)", "log10 of IC50": -1.03}
{"compound": "NCCC(Nc1cccc(-c2n[nH]c3nc(N[C@H]4CC[C@H](N)CC4)ncc23)c1)c1ccccc1 (some centres unmarked) [Example 79, hydrochloride]", "systemUnderTest": "Human DYRK1B (Homo sapiens)", "log10 of IC50": -0.22}
{"compound": "OCCNc1ncc2c(-c3ccnc(NCc4cccc(Cl)c4)n3)n[nH]c2n1 [Example 91, hydrochloride]", "systemUnderTest": "Human DYRK1B (Homo sapiens)", "log10 of IC50": -0.74}
{"compound": "Clc1cccc(CNc2nccc(-c3n[nH]c4nc(NCCN5CCNCC5)ncc34)n2)c1 [Example 92, hydrochloride]", "systemUnderTest": "Human DYRK1B (Homo sapiens)", "log10 of IC50": -1.24}
{"compound": "N[C@H]1CC[C@H](Nc2ncc3c(-c4cccc(NCc5ccccc5)c4)n[nH]c3n2)CC1", "systemUnderTest": "Human DYRK1B (Homo sapiens)", "log10 of IC50": -0.62}
{"compound": "N[C@H]1CC[C@H](Nc2ncc3c(-c4cccc(NCc5ccccc5Cl)c4)n[nH]c3n2)CC1", "systemUnderTest": "Human DYRK1B (Homo sapiens)", "log10 of IC50": -0.71}
{"compound": "NCCC(Nc1nccc(-c2n[nH]c3nc(N[C@H]4CC[C@H](N)CC4)ncc23)n1)c1ccccc1 (some centres unmarked) [Example 68, hydrochloride]", "systemUnderTest": "Human DYRK1B (Homo sapiens)", "log10 of IC50": -1.96}
{"compound": "Clc1cccc(CNc2nccc(-c3n[nH]c4nc(NCC5CCNCC5)ncc34)n2)c1 [Example 88, hydrochloride]", "systemUnderTest": "Human DYRK1B (Homo sapiens)", "log10 of IC50": -1.80}
{"compound": "Clc1ccc(CNc2nccc(-c3n[nH]c4nc(NCCN5CCOCC5)ncc34)n2)cc1 [Example 64, hydrochloride]", "systemUnderTest": "Human DYRK1B (Homo sapiens)", "log10 of IC50": -0.45}
{"compound": "c1cc(NCc2cccs2)cc(-c2n[nH]c3nc(NCCN4CCOCC4)ncc23)c1", "systemUnderTest": "Human DYRK1B (Homo sapiens)", "log10 of IC50": 0.70}
{"compound": "c1cc(-c2n[nH]c3nc(NCCN4CCOCC4)ncc23)nc(NCc2ccsc2)n1 [Example 77, hydrochloride]", "systemUnderTest": "Human DYRK1B (Homo sapiens)", "log10 of IC50": -1.40}
{"compound": "NCCC(Nc1cccc(-c2n[nH]c3nc(NCCN4CCOCC4)ncc23)n1)c1ccccc1 (centres unmarked) [Example 75, hydrochloride]", "systemUnderTest": "Human DYRK1B (Homo sapiens)", "log10 of IC50": 0.44}
{"compound": "NCC(Nc1nccc(-c2n[nH]c3nc(N[C@H]4CC[C@H](N)CC4)ncc23)n1)c1ccccc1 (some centres unmarked) [Example 67, hydrochloride]", "systemUnderTest": "Human DYRK1B (Homo sapiens)", "log10 of IC50": -2.29}
